biological target: MAGL (Mus musculus); construct: Proteomes (mouse brain membrane fraction or cell lysates); from tissue; host or cells: mouse brain membrane fraction (or cell lysates, not specified); assay: In vitro competitive activity-based protein profiling (gel-based, FP-Rh or HT-01 probe); assay type: biochemical; conditions: 1 μM inhibitor
Sequence (O35678 whole entry): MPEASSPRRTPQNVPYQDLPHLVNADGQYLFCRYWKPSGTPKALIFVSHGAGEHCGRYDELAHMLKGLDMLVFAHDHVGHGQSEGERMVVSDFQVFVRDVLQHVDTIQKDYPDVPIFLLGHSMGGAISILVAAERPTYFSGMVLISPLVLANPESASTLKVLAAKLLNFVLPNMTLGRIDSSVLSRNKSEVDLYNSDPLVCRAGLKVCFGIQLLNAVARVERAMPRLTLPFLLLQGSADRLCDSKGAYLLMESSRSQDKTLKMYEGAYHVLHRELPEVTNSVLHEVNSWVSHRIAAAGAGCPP
Reported inhibition at 1 µM values are given for each entry in this list.

>>> observed_result("O=C(N1CCN(Cc2ccc(-c3ccccc3)cc2OCc2ccccc2)CC1)n1cc(C(F)(F)F)cn1")
"> 75%"

Ask | Answer with reported inhibition at 1 µM of CC(=O)N1CCCN(C(=O)n2cc(C#N)cn2)CC1
Reply | < 25%

Ask | Answer with reported inhibition at 1 µM of Cc1cc(-c2ccccc2)ccc1CN1CCN(C(=O)n2cc(C#N)cn2)CC1
Reply | > 75%

Ask | Answer with reported inhibition at 1 µM of O=C(N1CCCN(Cc2ccccc2)CC1)n1cc(C(F)(F)F)cn1
Reply | > 75%

Ask | Answer with reported inhibition at 1 µM of CN(Cc1cccc(-c2ccncc2)c1)C(=O)n1cc(C(F)(F)F)cn1
Reply | > 75%

Ask | Answer with reported inhibition at 1 µM of O=C(c1cnn(C(=O)N2CCN(Cc3nccs3)CC2)c1)N1CCCC1
Reply | < 25%

Ask | Answer with reported inhibition at 1 µM of CN(CCN(C)S(C)(=O)=O)C(=O)n1cc(C#N)cn1
Reply | < 25%

Ask | Answer with reported inhibition at 1 µM of Cc1cnn(C(=O)N(C)CCN(C)C(=O)OC(C)(C)C)c1
Reply | < 25%

Ask | Answer with reported inhibition at 1 µM of Cc1cc(N2CCN(C(=O)n3cc(C(F)(F)F)cn3)CC2)c2ccccc2n1
Reply | > 75%
